Kindly state MRT inf for each of the entries shown.
assay: Half-lives and pharmacokinetic parameters of polypeptides vs HM-1; conditions: in vivo; read-out: MRT0-∞
Peptide text beside a SMILES is read from it. * marks the point of attachment. Hexanoyl(6-maleimido) = O=C1C=CC(=O)N1CCCCCC(=O)*; Propanoyl(3-maleimido) = O=C1C=CC(=O)N1CCC(=O)*; Maleimidoacetyl = O=C1C=CC(=O)N1CC(=O)*
Please make sure the unit comes right after the number.

// query What value of MRT inf has been reported for the following compound? C[C@H](NC(=O)CNC(=O)[C@H](CCCNC(=N)N)NC(=O)CCCCCN1C(=O)C=CC1=O)C(=O)N[C@@H](CC(=O)O)C(=O)N[C@@H](CCCNC(=N)N)C(=O)N[C@@H](C)C(=O)N[C@@H](CCC(=O)O)C(=O)N[C@@H](C)C(=O)N[C@@H](C)C(=O)N[C@@H](C)C(=O)N[C@@H](CCCCN)C(=O)N[C@@H](CCCNC(=N)N)C(=O)NCC(=O)N[C@@H](CC(=O)O)C(=O)O [P12] ({Hexanoyl(6-maleimido)}-RGADRAEAAAKRGD-OH; C-terminus assumed)
// result 61 h

// query What value of MRT inf has been reported for the following compound? C[C@H](NC(=O)CNC(=O)[C@H](CCCNC(=N)N)NC(=O)CN1C(=O)C=CC1=O)C(=O)N[C@@H](CC(=O)O)C(=O)N[C@@H](CCCNC(=N)N)C(=O)N[C@@H](C)C(=O)NCC(=O)NCC(=O)NCC(=O)NCC(=O)N[C@@H](CCCNC(=N)N)C(=O)NCC(=O)N[C@@H](CC(=O)O)C(=O)O [X1] (Maleimidoacetyl-RGADRAGGGGRGD-OH)
// result 51.9 h

// query What value of MRT inf has been reported for the following compound? C[C@H](NC(=O)CNC(=O)[C@H](CCCNC(=N)N)NC(=O)CCN1C(=O)C=CC1=O)C(=O)N[C@@H](CC(=O)O)C(=O)N[C@@H](CCCNC(=N)N)C(=O)N[C@@H](C)C(=O)NCC(=O)N[C@@H](CO)C(=O)N[C@@H](CO)C(=O)N[C@@H](CO)C(=O)N[C@@H](CO)C(=O)N[C@@H](CCCNC(=N)N)C(=O)NCC(=O)N[C@@H](CC(=O)O)C(=O)O [P13] ({Propanoyl(3-maleimido)}-RGADRAGSSSSRGD-OH; C-terminus assumed)
// result 56.9 h

---

system: choroidal neovascularization; test: Choroidal neovascularization in rats (laser photocoagulation, FFA); format: in vivo; details: day 28 after administration, total light spot number was 69, 0.05 μM in the vitreous chamber once a day for 1 week, BN rats
Peptide text beside a SMILES is read from it. * marks the point of attachment. X74 = O=C1C=CC(=O)N1c1cccc(CCCCCCCCCCC(=O)*)c1
Property name: Leakage Light spot number
Field format: numeric only.

// query What value of Leakage Light spot number has been reported for the following molecule? C[C@H](NC(=O)CNC(=O)[C@H](CCCNC(=N)N)NC(=O)CCCCCCCCCCc1cccc(N2C(=O)C=CC2=O)c1)C(=O)N[C@@H](CC(=O)O)C(=O)N[C@@H](CCCNC(=N)N)C(=O)N[C@@H](C)C(=O)NCC(=O)NCC(=O)NCC(=O)NCC(=O)N[C@@H](CCCNC(=N)N)C(=O)NCC(=O)N[C@@H](CC(=O)O)C(=O)O [X34] (X74-RGADRAGGGGRGD-OH)
// result 29

---

system: choroidal neovascularization; test: Choroidal neovascularization in rats (laser photocoagulation, FFA); assay type: in vivo; settings: day 7 after administration, total light spot number was 186, 0.05 μM in the vitreous chamber once a day for 1 week, BN rats
Peptide text beside a SMILES is read from it. * marks the point of attachment. X58 = O=C1C=CC(=O)N1c1cccc(CCCCCCCCCCCC(=O)*)c1; X68 = O=C1C=CC(=O)N1c1ccccc1CCCCCCCCCCCC(=O)*; X49 = O=C1C=CC(=O)N1c1ccccc1CCCCCC(=O)*
Kindly state Leakage Light spot number for each of the entries shown.
Field format: numeric only.

// query What value of Leakage Light spot number has been reported for the following compound? C[C@H](NC(=O)CNC(=O)[C@H](CCCNC(=N)N)NC(=O)CCCCCc1ccccc1N1C(=O)C=CC1=O)C(=O)N[C@@H](CC(=O)O)C(=O)N[C@@H](CCCNC(=N)N)C(=O)N[C@@H](C)C(=O)NCC(=O)NCC(=O)NCC(=O)NCC(=O)N[C@@H](CCCNC(=N)N)C(=O)NCC(=O)N[C@@H](CC(=O)O)C(=O)O [X17] (X49-RGADRAGGGGRGD-OH)
// result 90

// query What value of Leakage Light spot number has been reported for the following compound? C[C@H](NC(=O)CNC(=O)[C@H](CCCNC(=N)N)NC(=O)CCCCCCCCCCCc1cccc(N2C(=O)C=CC2=O)c1)C(=O)N[C@@H](CC(=O)O)C(=O)N[C@@H](CCCNC(=N)N)C(=O)N[C@@H](C)C(=O)NCC(=O)NCC(=O)NCC(=O)NCC(=O)N[C@@H](CCCNC(=N)N)C(=O)NCC(=O)N[C@@H](CC(=O)O)C(=O)O [X35] (X58-RGADRAGGGGRGD-OH)
// result 89

// query What value of Leakage Light spot number has been reported for the following compound? C[C@H](NC(=O)CNC(=O)[C@H](CCCNC(=N)N)NC(=O)CCCCCCCCCCCc1ccccc1N1C(=O)C=CC1=O)C(=O)N[C@@H](CC(=O)O)C(=O)N[C@@H](CCCNC(=N)N)C(=O)N[C@@H](C)C(=O)NCC(=O)NCC(=O)NCC(=O)NCC(=O)N[C@@H](CCCNC(=N)N)C(=O)NCC(=O)N[C@@H](CC(=O)O)C(=O)O [X23] (X68-RGADRAGGGGRGD-OH)
// result 85

---

assay: Half-lives and pharmacokinetic parameters of polypeptides vs HM-1; settings: in vivo
Peptide text beside a SMILES is read from it. * marks the point of attachment. X74 = O=C1C=CC(=O)N1c1cccc(CCCCCCCCCCC(=O)*)c1; X64 = O=C1C=CC(=O)N1c1cccc(CCCCCCCCCC(=O)*)c1; X54 = O=C1C=CC(=O)N1c1cccc(CCCCCCC(=O)*)c1; X35 = O=C1C=CC(=O)N1CCOCCOCCOCCOCC(=O)*; X15 = O=C1C=CC(=O)N1CCOCCOCCOCCC(=O)*; X51 = O=C1C=CC(=O)N1c1ccccc1CC(=O)*
Property name: MRT inf (h)
Reply with just the number (in h).

// query What value of MRT inf has been reported for the following molecule? C[C@H](NC(=O)CNC(=O)[C@H](CCCNC(=N)N)NC(=O)CCCCCCCCCCc1cccc(N2C(=O)C=CC2=O)c1)C(=O)N[C@@H](CC(=O)O)C(=O)N[C@@H](CCCNC(=N)N)C(=O)N[C@@H](C)C(=O)NCC(=O)NCC(=O)NCC(=O)NCC(=O)N[C@@H](CCCNC(=N)N)C(=O)NCC(=O)N[C@@H](CC(=O)O)C(=O)O [X34] (X74-RGADRAGGGGRGD-OH)
// result 49.6

// query What value of MRT inf has been reported for the following molecule? C[C@H](NC(=O)CNC(=O)[C@H](CCCNC(=N)N)NC(=O)CCCCCCc1cccc(N2C(=O)C=CC2=O)c1)C(=O)N[C@@H](CC(=O)O)C(=O)N[C@@H](CCCNC(=N)N)C(=O)N[C@@H](C)C(=O)NCC(=O)NCC(=O)NCC(=O)NCC(=O)N[C@@H](CCCNC(=N)N)C(=O)NCC(=O)N[C@@H](CC(=O)O)C(=O)O [X30] (X54-RGADRAGGGGRGD-OH)
// result 50.8

// query What value of MRT inf has been reported for the following molecule? C[C@H](NC(=O)CNC(=O)[C@H](CCCNC(=N)N)NC(=O)Cc1ccccc1N1C(=O)C=CC1=O)C(=O)N[C@@H](CC(=O)O)C(=O)N[C@@H](CCCNC(=N)N)C(=O)N[C@@H](C)C(=O)NCC(=O)NCC(=O)NCC(=O)NCC(=O)N[C@@H](CCCNC(=N)N)C(=O)NCC(=O)N[C@@H](CC(=O)O)C(=O)O [X13] (X51-RGADRAGGGGRGD-OH)
// result 60

// query What value of MRT inf has been reported for the following molecule? C[C@H](NC(=O)CNC(=O)[C@H](CCCNC(=N)N)NC(=O)CCCCCCCCCc1cccc(N2C(=O)C=CC2=O)c1)C(=O)N[C@@H](CC(=O)O)C(=O)N[C@@H](CCCNC(=N)N)C(=O)N[C@@H](C)C(=O)NCC(=O)NCC(=O)NCC(=O)NCC(=O)N[C@@H](CCCNC(=N)N)C(=O)NCC(=O)N[C@@H](CC(=O)O)C(=O)O [X33] (X64-RGADRAGGGGRGD-OH)
// result 60.8

// query What value of MRT inf has been reported for the following molecule? C[C@H](NC(=O)CNC(=O)[C@H](CCCNC(=N)N)NC(=O)CCOCCOCCOCCN1C(=O)C=CC1=O)C(=O)N[C@@H](CC(=O)O)C(=O)N[C@@H](CCCNC(=N)N)C(=O)N[C@@H](C)C(=O)NCC(=O)NCC(=O)NCC(=O)NCC(=O)N[C@@H](CCCNC(=N)N)C(=O)NCC(=O)N[C@@H](CC(=O)O)C(=O)O [X64] (X15-RGADRAGGGGRGD-OH)
// result 57.7

// query What value of MRT inf has been reported for the following molecule? C[C@H](NC(=O)CNC(=O)[C@H](CCCNC(=N)N)NC(=O)COCCOCCOCCOCCN1C(=O)C=CC1=O)C(=O)N[C@@H](CC(=O)O)C(=O)N[C@@H](CCCNC(=N)N)C(=O)N[C@@H](C)C(=O)NCC(=O)NCC(=O)NCC(=O)NCC(=O)N[C@@H](CCCNC(=N)N)C(=O)NCC(=O)N[C@@H](CC(=O)O)C(=O)O [X70] (X35-RGADRAGGGGRGD-OH)
// result 50.2
